System: RPMI-8226 leukemia
Test: NCI-60 one-dose screen, 48 h
Conditions: 10 µM unless noted
Compounds without any hit were thinned out: in the full panel of roughly 83,000, 20% have a hit. Activity calls are given as the source filed them. The calls were made as follows: active = growth percent below 10; inactive = the rest.
Bench note: report the call from active, inactive

As a guide, the following entries are already answered.
1. Cc1ccc(NC(=S)/N=c2/n(-c3ccccc3)nc3n2CCN3C2=NCCN2)cc1
inactive
2. COc1cc(OC)cc(C(=O)Nc2cc(-c3cccnc3)nc(NCCCN3CCOCC3)n2)c1
inactive
3. N#C/C(C(=O)c1ccccc1)=C1/C(=O)Nc2ccccc21
inactive

input: Recorded test call requested for `CC(C)c1ccc(/C=N/N=C(N)N)cc1`
output: inactive

input: Recorded test call requested for `Nc1ccc(Cl)c([N+](=O)[O-])c1`
output: inactive

input: Recorded test call requested for `C=C(C)[C@@H]1CC[C@]2(C(=O)OC)CC[C@]3(C)[C@H](CC[C@@H]4[C@@](C)(CCc5nn[nH]n5)[C@H](C(=C)C)CC[C@]43C)[C@@H]12`
output: active

input: Recorded test call requested for `O=C(Oc1ccc(Cl)cc1[N+](=O)[O-])Oc1ccc(Cl)cc1[N+](=O)[O-]`
output: inactive

input: Recorded test call requested for CC(C)[N+](C)(C)CC(O)COc1cccc2ccccc12 (stereo unspecified)
output: inactive

input: Recorded test call requested for CCN(CC)c1ccc2cc(C(Nc3ccc(Br)c(C(F)(F)F)c3)c3nnnn3C(C)(C)C)c(=O)oc2c1 (stereo unspecified)
output: inactive

input: Recorded test call requested for `N/C(=N\c1nc2ccccc2[nH]1)NC(=O)Cc1cccc2ccccc12`
output: inactive

input: Recorded test call requested for COc1ccc2nc3c(cc2c1)C(=O)CC(c1ccccc1)C3 (stereo unspecified)
output: inactive

input: Recorded test call requested for `O=C(Nc1ccc(Oc2ccc(F)cc2)c(Cl)c1)c1cnccn1`
output: inactive

input: Recorded test call requested for `CCN=Cc1c(O)c(O)c(C(C)C)c2cc(C)c(-c3c(C)cc4c(C(C)C)c(O)c(O)c(C=NCC)c4c3O)c(O)c12`
output: inactive

input: Recorded test call requested for `COC(=O)c1cc2c(=O)[nH]cc3c2c(n1)CCC3`
output: inactive

input: Recorded test call requested for Cc1ccc2c(c1)C(C)Cc1c(Cl)ncnc1N2C (stereo unspecified)
output: inactive

input: Recorded test call requested for `CCOc1cc(NC(=O)c2ccccc2)c(OCC)cc1N`
output: inactive

input: Recorded test call requested for `CC(C)=CCC[C@](C)(O)[C@H]1CC[C@]2(C)[C@@H]1CC[C@@H]1[C@@]3(C)CC[C@H](OC(=O)CCC(=O)O)C(C)(C)[C@@H]3CC[C@]12C`
output: active

input: Recorded test call requested for `Nc1nnc(CSc2nnc3n(Cc4ccccc4)c(=O)c4c5c(sc4n23)CCCC5)s1`
output: inactive

input: Recorded test call requested for `CC(C)CCNCC(C)(C)O`
output: inactive

input: Recorded test call requested for `Cc1nn(-c2ccccc2)c(N2CCOCC2)c1-c1nc2ccc([N+](=O)[O-])cc2[nH]1`
output: inactive

input: Recorded test call requested for `Cc1ccc(S(=O)(=O)Nc2ccccc2)cc1N`
output: inactive

###

System: A498 renal
Experiment: NCI-60 one-dose screen, 48 h (100 = growth as untreated, 0 = no growth, -100 = all killed)
Conditions: 10 µM unless noted
This is part of a sample that, as a whole, favours compounds with a hit. Of some 83,000 tested, about 20% had one in any assay.
readout: growth (%)
Give a bare numeral; the unit % is implied.

1. Cc1cnc(N)nc1OCC(C)(C)CNC(=O)c1cccc(-c2ccc(S(=O)(=O)Nc3ccc4c(c3)N(C(=O)C3CC3)CCC4)cc2)c1
37.3
2. Cn1cc(-c2noc(-c3cn(C)c4ncc(Br)cc34)n2)c2cc(Cl)ccc21
84.8
3. O=C1NC(=O)C(Cc2ccccc2)(Cc2ccccc2)N1
102
4. Cc1nn(-c2ccccc2)c(N2CCOCC2)c1-c1nc2ccc([N+](=O)[O-])cc2[nH]1
76.3
5. O=C1C(Cl)=C(Nc2ccc3cn[nH]c3c2)C(=O)c2ccccc21
93

The compound `C=C(CC(=O)OC)C(C)=O` showed growth equal to 95.1

The compound `O=[N+]([O-])c1cc(CCl)ccc1OCCBr` showed growth equal to 91.9

The compound `O=C(N=c1n(-c2ccccc2)nc2n1CCN2C1=NCCN1)c1ccc(Cl)cc1` showed growth equal to 68.3

The compound `CCN(CC)CCCNCc1cc(-c2ccccc2)nc2ccccc12` showed growth equal to 75.2

The compound `COc1cc2c(c(OC)c1OC)-c1cc(I)c(O)cc1[C@@H](NC(C)=O)CC2` showed growth equal to 49.2
